Tested on: gene editing with dCas9
Experiment: Screen of 322 new SSAP proteins, gene editing activity with dCas9 (Table 5)
Type: cell-based
Details: normalized
recorded-endpoint: dCas9 with SSAP activity (normalized)
I only need the number, thanks.

These solved cases illustrate the format of a correct answer.
molecule	reported-result
SSAP_59: SEQ ID NO: 228 (protein) SEIQQQAEAQTQAHPTAVLDDYRGAIASVAPPGTNIDLFIRMTKSNVNRSDEIVAAVKRNPGLFMQAVMDSAALGHIPGSEYYYLTPRRDGISGIESWKGVAKRIFNTGRYQRIVCEVVYEGEQWEFQPGEDLKPKHVIDWDARQVGSKVRFTYAYAVDFEGNPSTVAVCTKLDLDKAQKQSRGKVWDQWYEQMAKKTAIKRLEDFVDTSAVDLRADGSSRRHSAEVAE	−0.336
SSAP_312: SEQ ID NO: 481; Gallionellaceae bacterium CG1_02_56_997 (protein, Gallionellaceae bacterium CG1_02_56_997) GRKEVERIRDGSRGYQAAKKYKKESTWDTDFVAMGLKTAIRRICKFLPKSPELATALAMDEQAGRQNLNLDDVINGSYTPVVDKDTGEIVDVADGGKTGNSNAATSTKLEKLEKIVAALRDANSVEALDEIYIRAEGDLDDANLEIAMREYRKCKDAISNSLI	−0.073
SSAP_293: SEQ ID NO: 462; Brevibacillus porteri (protein, Brevibacillus porter, Brevibacillus porteri) ADQNKLVVIYNNLEKLLDSKREAMPTSFNKTRFLQNCMTVLQETKDIELCNPTTVARTMLKGAFLGLDFFNKECYAVVYKGSVEFQTDYKGEVKLAKKYSTKPVREVYAKLVREGDEFAEEINSGNQTINFRPKPFNNEEILGAFAVVNYMDGTMAYDIMSKEEIEKIKENFSRKSKQTGEYSKAWVVTPGEMYKKTVLRRLCKNIDLDFDTIEQRQAFEDAGDVDFNQEVKPAQQSPLNSTVIEAEFEEVSEEQTNAAEQE	−0.563

// switching to the query molecule
Query :: Which dCas9 with SSAP activity (normalized) is listed for SSAP_149: SEQ ID NO: 318; unclassified Oscillibacter (protein, listed as Oscillibacter sp.) KEGLIQGTQSAQAAKKGPATMQDYIKKMQGEIAKALPSVLTPERFTRITLSALSTNPKLAQTTPKSFLGAMMTAAQLGMEPNTPLGQAYLIPFKNHGVLECQFQLGYKGLIDLAYRSGEVSTIQAQTVYENDEFEYELGLEPKLHHVPAKGERGEPVYFYAVFRTKDGGYGFEVMSVDDVRTHAKKYSKAYSNGPWQTNFEEMAKKTVLKKALKYAPLKTEFMRGLTSDETIKTEISEDMYSVPDETVIEAEGYEVDGDTGEVIERPADGQ ?
Result :: −1.192
